Tested on: HeLa cells
Experiment: HeLa cell assay (cytotoxicity)
Format: cell-based
Details: Homo sapiens; Table 2; HeLa cells, 48 hours, resazurin; read-out: HeLa IC50
parameter-measured: pIC50
Please express pIC50 as -log10 of the molar concentration.

Below: 6 molecules and their reported pIC50.
O=C(Nc1ccccc1)c1ccc(-c2cc3ccncc3cc2OC2CCNCC2)s1 ... 5.12
O=C(Nc1nc(-c2ccccn2)cs1)c1cncn1-c1ccccc1 ... 5.29
CC(Oc1ccccc1)C(=O)Nc1nc(-c2ccccn2)cs1 (stereo not shown) ... 5.08
CCc1c(C)nc(-n2nc(C)cc2NC(=O)c2ccccc2SC)[nH]c1=O ... 5.59
Cc1ccc2c(c1C)NC(=O)C21NN=C(c2ccccc2)S1 (stereo not shown) [Compound 54, Cc1ccc2c(NC(=O)C23NN=C(S3)c4ccccc4)c1C] ... 5.18
Cc1cc(C2=NOC(c3cc(Cl)c(F)c(Cl)c3)(C(F)(F)F)C2)ccc1C(=O)NCc1ccc2c(c1)C(C)(C)OB2O (stereo not shown) ... 5.00

[in] // lookup pIC50 for COc1cccc(-c2nc3c(N4CCCC4)cccc3n2CC2CCCN2)n1 (stereo not shown)
[out] 4.66

[in] Now the same for CC(C)=CCC/C(C)=C\CNCCNC1C2CC3CC(C2)CC1C3 (stereo not shown)
[out] 4.82

[in] Now the same for CC(C)C(C(=O)Nc1ccc(S(=O)(=O)N(C)C)cc1)c1ccc(Cl)cc1 (stereo not shown)
[out] 4.92
